Answer each item with its documented DGI-2/LDH (OD).
# target_of_assay: T1, DGI-2 polypeptide (UniProt Q15004 1-111, limits assumed)
# T1 construct: Vector-derived residues or tag of pIVEX2.3 are not described for this construct; also called KIAA0101
# T1 sequence (looked up): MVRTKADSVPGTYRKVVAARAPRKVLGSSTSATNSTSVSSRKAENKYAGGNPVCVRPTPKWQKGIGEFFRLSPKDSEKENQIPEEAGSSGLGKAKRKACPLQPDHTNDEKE
# assay_text: phage ELISA, 405 nm; DGI-2 signal over LDH signal
Numbers only, in ratio.

>>> observed_measurement("DGI-2-40F-3-D9 (not shown: phage gene III coat protein (pCANTAB5E)) peptide: RRTSADTDQLSRWEGAQAFSSLRSALSERLDSLRPGLPPSAAAGAPVPYPDPLEPRP")
1.4
>>> observed_measurement("RWSICRGLQYSIPGCAVEDLSDVMAAAAGAPVPYPDPLEPRP (not shown: phage gene III coat protein (pCANTAB5E)) [DGI-2-20C-4-H316]")
3.9

// below: DGI-2/LDH (OD) requested for another binder
Recorded DGI-2/LDH (OD) (binder ACSVGTALVFPQRWWYLGRSAAAGAPVPYPDPLEPRP (not shown: phage gene III coat protein (pCANTAB5E)) [DGL-2-20R-3-D6] ): 2.1
